Molecular target: T1, GII.4 Houston 2002 (ABY27560.1) VLPs (human norovirus GII.4 Houston 2002, UniProt P54635 1-539)
T1 construct: also called GII.4 Houston 2002 antigen; GII.4 Houston VLPs
T1 chain: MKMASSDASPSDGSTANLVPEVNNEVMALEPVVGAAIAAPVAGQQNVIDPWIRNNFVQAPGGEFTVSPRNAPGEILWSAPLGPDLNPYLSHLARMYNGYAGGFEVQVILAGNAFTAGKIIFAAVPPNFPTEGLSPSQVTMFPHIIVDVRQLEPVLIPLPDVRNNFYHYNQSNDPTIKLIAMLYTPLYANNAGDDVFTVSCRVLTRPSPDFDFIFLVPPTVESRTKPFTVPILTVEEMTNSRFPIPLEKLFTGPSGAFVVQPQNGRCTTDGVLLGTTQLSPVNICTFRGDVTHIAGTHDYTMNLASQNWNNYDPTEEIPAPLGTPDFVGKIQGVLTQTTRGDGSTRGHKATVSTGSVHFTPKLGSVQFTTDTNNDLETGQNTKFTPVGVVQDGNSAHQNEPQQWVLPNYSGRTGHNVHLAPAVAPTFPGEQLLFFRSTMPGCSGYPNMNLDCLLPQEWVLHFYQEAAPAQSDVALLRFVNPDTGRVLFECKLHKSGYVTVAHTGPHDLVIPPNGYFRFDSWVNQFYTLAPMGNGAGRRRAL
Experiment: ELISA on GII.4 Houston 2002 VLPs
measuredAttribute: binding result

INSERT INTO results (binder, obsvalue) VALUES
  ('NORO-202A.1 (antibody, V domains shown) VH: QVQLVQSGAEVKKPGASVKVSCKASEYTFTGYYLQWVRQAPGHGLEWMGWINPSGGTKYSQKFQGRVTMTRDTSITTVYMELSRLRSDDTAVYYCARDLLRNWGDHDAFDVWGQGTMVTVSS VL: QSVLTQPPSASETPGQGVTISCSGSSSNIGSNFVCWYQQVPGTAPKLLIYKNNQRPSGVPDRFSGSKSGTSASLAISGLRSEDEADYYCSAWDDSLSGPVFGGGTKLTVL', 'binds'),
  ('NORO-303 (antibody, V domains shown) VH: QVQLVESGGGVVQPGRSLRLSCAASGFIFSSYAMHWVRQAPGKGLEWVAVMSYDGNNKYYADSVKGRFTISRDNSKNTLFLQMNSLRPEDTAVYYCARDCRVGWVFTYGMDVWGQGTLVTVSS VL: QSALTQPPSASGSPGQSVTISCTGTSSDVGGYNYVSWYQQHPGKAPKLMMYEISKRPSGVPIRFSGSKSGNTASLTVSGLQAEDEADYYCSSYAGTYNCVVFGGGTKLTVL', 'binds'),
  ('NORO-278 (antibody, V domains shown) VH: QVQLVESGGGVVQPGRSLRLSCAASGFTFSSYGMHWVRQAPGKGLEWVAVISYDGSNKYYADSVKGRFTISRDNSKNTLYLQMNSLRAEDTAVYYCAKVTIIAAADLLDYWGQGTLVTVSS VL: QSVLTQPPSVSGAPGQRVTISCTGSSSNIGAGYDVHWYQQLPGTAPKLLIYGNSNRPSGVPDRFSGSKSGTSASLAITGLQAEDEADYYCQSYDSSLSGPVVFGGGTKLTVL', 'binds');
